- Tested on: CCRF-CEM
- Assay notes: NCI tumour cell line growth inhibition, 48 h
The source made the active and inactive calls. No stated cut-off is given here; in the data, active = GI50 up to about 1.1 µM and inactive = higher.
Measure: GI50

For `COc1ccc2cc(CN3CCC(C4CCNCC4)CC3)ccc2c1` on CCRF-CEM, measured GI50 was 1.96 µM (inactive)

For CCCCCCCCCCCCC(Br)C(=O)SCCNC(=O)CCNC(=O)[C@@H](O)C(C)(C)COP(=O)(O)OP(=O)(O)OCC1OC(n2cnc3c(N)ncnc32)C(O)C1OP(=O)(O)O (some centres not stated) on CCRF-CEM, measured GI50 was 35.4 µM (inactive)

For CC(C)(C)N/N=C(\C(=O)Nc1cccc(Cl)c1)C1C(=O)Nc2ccccc2[S+]1[O-] (configuration not stated) on CCRF-CEM, measured GI50 was > 100 µM (inactive)

For `COc1cccc(C(=O)N2CCc3ccccc32)c1OC` on CCRF-CEM, measured GI50 was 42.2 µM (inactive)

For O=C1Cc2c([nH]c3ccc([N+](=O)[O-])cc23)-c2ccccc2N1 [ALSTERPAULLONE] on CCRF-CEM, measured GI50 was 0.118 µM (active)

For `OCCN(/N=C\c1ccc2ccccc2c1)C1=NCCN1` on CCRF-CEM, measured GI50 was 27.6 µM (inactive)

More entries:
For Cc1ccc(OCC2=NN3C(=O)/C(=C\c4ccc([N+](=O)[O-])o4)SC3N2)cc1 (configuration not stated) on CCRF-CEM, measured GI50 was 2.99 µM (inactive)

----------
- System: MDA-MB-231
- Assay notes: NCI tumour cell line growth inhibition, 48 h
Activity calls are given as the source filed them. Rule as the data show it: active = GI50 up to about 1.1 µM and inactive = higher.
Outcome (select one): T (active), F (inactive)

Example results:
I'd appreciate the recorded outcome for `Cn1c2ccc3cc2c(=S)c2cc(ccc21)OCCOCCOCCOCCOCCO3` from this test.
F

I'd appreciate the recorded outcome for `CCOc1ccc(/N=C/C=C(\Cl)c2ccc3ccccc3c2)cc1` from this test.
F

I'd appreciate the recorded outcome for `Fc1ccc(NCn2nc(COc3ccccc3Cl)n(/N=C/c3ccc(-c4ccc(Cl)cc4Cl)o3)c2=S)cc1Cl` from this test.
F

I'd appreciate the recorded outcome for CC1CC(=O)Nc2ccccc2N1C(=O)C1CC1 (stereo unspecified) from this test.
F

I'd appreciate the recorded outcome for `CN(C)CCNC(=O)c1cc([N+](=O)[O-])cn1C` from this test.
F

More entries:
I'd appreciate the recorded outcome for O=C1C(CN2CCCC2)CCCC1CN1CCCC1 (stereo unspecified) from this test.
F

I'd appreciate the recorded outcome for `COc1ccc2nc3c([N+](=O)[O-])ccc(NCCCN(C)C)c3c(N)c2c1` from this test.
F

I'd appreciate the recorded outcome for `COc1ccc(NC(=S)N/N=C\c2ccc(NC(C)=O)cc2)cc1` from this test.
F

I'd appreciate the recorded outcome for `C/C(=N\Nc1nc2ccccc2n1C)c1cc2ccccc2cn1` from this test.
T

I'd appreciate the recorded outcome for COC(=O)c1ccccc1/C=C1\Cc2ccc3ccccc3c2C1C (stereo unspecified) from this test.
F

I'd appreciate the recorded outcome for CC1=C(C#N)C2C(=C(N)Oc3ccccc32)C(N)=N1 (stereo unspecified) from this test.
F

----------
- Test system: IGROV-1
- Assay notes: NCI tumour cell line growth inhibition, 48 h
Activity calls are given as the source filed them. No stated cut-off is given here; in the data, active = GI50 up to about 1.1 µM and inactive = higher.
In this section, each of the compounds is paired with its reported GI50.

Recorded results for 3 compounds are shown here.
GI50 reported for this compound C=C1C(=O)OC2/C=C(\CO)C3OC3C3OC3(C)CC(OC(=O)/C(=C/C)CO)C12 (stereo not given) : > 100 µM (inactive)

GI50 reported for this compound `N=C(N)NS(=O)(=O)c1ccc(Nc2c3ccccc3nc3c(C(=O)NC(CO)(CO)CO)cccc23)cc1` : 37.6 µM (inactive)

GI50 reported for this compound OCC(O)C(O)C(O)c1nn(-c2ccc(F)cc2)c2nc3cc(Cl)c(Cl)cc3nc12 (stereo not given) : 21.9 µM (inactive)

More entries:
GI50 reported for this compound COc1ccc2ccc3c(c2c1)CN1CCc2cc(OC)c(OC)cc2C1C3 (stereo not given) : > 100 µM (inactive)

----------
- Test system: SNB-75
- Assay notes: NCI tumour cell line growth inhibition, 48 h
Activity calls are given as the source filed them. Rule as the data show it: active = GI50 up to about 1.1 µM and inactive = higher.
Outcome (select one): active, inactive

I'd appreciate the recorded outcome for `CCOC(=O)/C=C/[C@H](O[Si](c1ccccc1)(c1ccccc1)c1ccccc1)C(C)(C)C` from this test.
inactive

I'd appreciate the recorded outcome for `CC(C)=CC(=O)CC(=O)C(=O)Nc1ccc(Cl)c(Cl)c1` from this test.
inactive

I'd appreciate the recorded outcome for COc1cc(C2c3cc4c(cc3[C@@H](Nc3ccccc3)C3COC[C@H]23)OCO4)cc(OC)c1O (stereo not given in full) from this test.
inactive

I'd appreciate the recorded outcome for C/C=C\C1OC1(C)c1cc(=O)c2c(C)cc3c(c2o1)C(=O)c1c(O)c(C2CC(C)(N(C)C)C(OC(C)=O)C(C)O2)cc(C2CC(N(C)C)C(O)C(C)O2)c1C3=O (stereo not given) from this test.
active

I'd appreciate the recorded outcome for N#CC(c1nc2ccccc2s1)c1nc(Cl)ncc1Br (stereo not given) from this test.
inactive

More entries:
I'd appreciate the recorded outcome for CC1(C)C/C=C\CCC(O)C(O)CCC(C)(C)C1=O (stereo not given) from this test.
inactive

----------
- System: OVCAR-4
- Assay notes: NCI tumour cell line growth inhibition, 48 h
Calls of active or inactive are those of the source. Rule as the data show it: active = GI50 up to about 1.1 µM and inactive = higher.
Measure: GI50

Recorded results for 10 compounds are shown here.
GI50 reported for this compound OCC1OC(Oc2cc(O)cc(/C=C\c3ccc(O)cc3)c2)C(O)C(O)C1O (stereo not given) : > 100 µM (inactive)

GI50 reported for this compound CCOC(=O)C(=O)CC(=O)C(Br)C(Br)c1ccc(Cl)cc1 (stereo not given) : 65.9 µM (inactive)

GI50 reported for this compound `O=C1C[C@@H](Sc2ccccc2)C2(OCCO2)[C@H]2ON3CCC[C@@H]3[C@@H]12` : 5 µM (inactive)

GI50 reported for this compound Cc1cnc(Cl)nc1C(C#N)c1nc2ccccc2n1C (stereo not given) : 49.1 µM (inactive)

GI50 reported for this compound Cc1ccc(NC(=O)C2C(=O)N(c3ccc(C)cc3)C(=O)/C2=N\NC(N)=S)cc1 (stereo not given) : > 100 µM (inactive)

GI50 reported for this compound `Brc1cc(C2OCCCO2)ccc1OCc1ccccc1` : 31.2 µM (inactive)

GI50 reported for this compound `CC(C)(C)/N=C\N(C=C(c1ccccc1)c1ccccc1)C1CCCCC1` : 39.4 µM (inactive)

GI50 reported for this compound `COc1ccc(C(Cl)=C(c2ccc(OCCN(C)C)cc2)c2ccc(OCCN(C)C)cc2)cc1` : 2.49 µM (inactive)

GI50 reported for this compound CN1CC[C@]23c4c5ccc(O)c4O[C@H]2C(O)CC[C@@]3(O)[C@H]1C5 (stereo not given in full) : > 100 µM (inactive)

GI50 reported for this compound `CN(C)CCNC(=O)c1cccc2[nH]c(-c3cccnc3)nc12` : 29.3 µM (inactive)

More entries:
GI50 reported for this compound `CC(=O)CN/C(C)=N/Nc1ccc([N+](=O)[O-])cc1[N+](=O)[O-]` : > 100 µM (inactive)

GI50 reported for this compound O=C(CC1C(=O)Nc2ccccc2S1(=O)=O)Nc1cc(Cl)ccc1Cl (stereo not given) : 16.8 µM (inactive)

GI50 reported for this compound `Clc1ccc(-c2cc(-c3cc4cc(Br)ccc4nc3Cl)on2)cc1` : 16.2 µM (inactive)

----------
In this section, each of the molecules is paired with its reported GI50.
- Test system: SK-MEL-28
- Assay notes: NCI tumour cell line growth inhibition, 48 h
The source made the active and inactive calls. Cut-off read from the data, not from the text of the source: active = GI50 up to about 1.1 µM and inactive = higher.

GI50 reported for this molecule `COc1cc([N+](=O)[O-])c(S(=O)(=O)[O-])cc1-[n+]1nc(C(=O)Nc2ccccc2)nn1-c1ccc([N+](=O)[O-])c(S(=O)(=O)O)c1` : > 100 µM (inactive)

GI50 reported for this molecule `O=c1c2cc(Br)ccc2[nH]c(=S)n1-c1ccccc1` : > 100 µM (inactive)

GI50 reported for this molecule `O=C(NCCCNCCCCNCCCNC(=O)c1cc(-c2ccccc2)nc2ccccc12)c1cc(-c2ccccc2)nc2ccccc12` : 1.87 µM (inactive)

More entries:
GI50 reported for this molecule NS(=O)(=O)c1cc2c(cc1Cl)NCNS2(=O)=O [HYDROCHLOROTHIAZIDE] : > 100 µM (inactive)

----------
In this section, each of the compounds is paired with its reported GI50.
- Tested on: DU-145
- Assay notes: NCI tumour cell line growth inhibition, 48 h
Active and inactive are the calls of the source. No stated cut-off is given here; in the data, active = GI50 up to about 1.1 µM and inactive = higher.

Recorded results for 4 compounds are shown here.
GI50 reported for this compound `Cc1c(-c2ccccc2)c(C#N)c2nnn(-c3cccc(Cl)c3)c(=O)n12` : 68.9 µM (inactive)

GI50 reported for this compound `O=P1(N(CCCl)CCCl)Oc2c(Cl)cc(Cl)c(Cl)c2Cc2c(Cl)c(Cl)cc(Cl)c2O1` : 71.1 µM (inactive)

GI50 reported for this compound N#Cc1cccc(N2C(=O)C3C4C=CC(C3C2=O)C2C(=O)N(c3cccc(C#N)c3)C(=O)C42)c1 (stereo not given) : > 100 µM (inactive)

GI50 reported for this compound CC(O[Si](c1ccccc1)(c1ccccc1)C(C)(C)C)[C@H](NC(=O)OC(C)(C)C)C(=O)O (stereo not given in full) : > 10 µM (inactive)

Shift focus to the following entry.
GI50 reported for this compound `Nc1ccc(Nc2c3ccccc3nc3ccccc23)cc1` : 4.92 µM (inactive)
